experiment: Permeability of compound in human Caco-2 cells […]; assay type: ADME, cell-based; details: read-out: permeability

[
  {
    "Input smiles": "CC(=O)Nc1cccc(-n2c(=O)n(C3CC3)c(=O)c3c(Nc4ccc(I)cc4F)n(C)c(=O)c(C)c32)c1",
    "Papp, ×10⁻⁶ cm/s": 26
  }
]

###

test system: HT-29; assay: Antiproliferative activity against human HT-29 cells assessed as reduction in cell viability after 72 hrs by MTS assay; format: functional, cell-based; conditions: HT-29, 72 h
pIC50: −log10 of the molar value.
Below is a list of entries, each paired with its recorded pIC50 value.

[
  {
    "Input smiles": "Cn1c(=O)cc(Nc2ccc(Br)cc2)c2c(=O)n(C3CC3)c(=O)n(-c3ccccc3)c21",
    "Operator": "=",
    "pIC50": 7.00
  },
  {
    "Input smiles": "CC(=O)Nc1cccc(-n2c(=O)n(C3CC3)c(=O)c3c(Nc4ccc(I)cc4F)n(C)c(=O)c(C)c32)c1",
    "Operator": "=",
    "pIC50": 9.24
  },
  {
    "Input smiles": "Cn1c(=O)cc(Nc2ccc(Br)cc2F)c2c(=O)n(C3CC3)c(=O)n(-c3ccccc3)c21",
    "Operator": "=",
    "pIC50": 7.82
  },
  {
    "Input smiles": "Cn1c(Nc2ccccc2)c2c(=O)n(C3CC3)c(=O)n(-c3ccc(Br)cc3)c2cc1=O",
    "Operator": "<",
    "pIC50": 6.00
  },
  {
    "Input smiles": "Cn1c(=O)cc(Nc2ccc(I)cc2F)c2c(=O)n(C3CC3)c(=O)n(-c3ccccc3)c21",
    "Operator": "=",
    "pIC50": 8.82
  },
  {
    "Input smiles": "Cn1c(=O)cc(Nc2ccc(Cl)cc2)c2c(=O)n(-c3ccccc3)c(=O)n(-c3ccccc3)c21",
    "Operator": "=",
    "pIC50": 6.00
  }
]
